Entry source: the supplement of paper PMC10567573

B1: TFE3 (parent)
chain: ELPNIKREISETEAKALLKERQKK

variants of: B1; test: protein stability index of a GFP-peptide fusion (GPS, HEK-293T) (PSI 1-6); higher = more stable; details: c terminus: a fixed tail appended;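 further: lentivirally expressed fusions sorted by FACS into six bins by GFP to DsRed ratio, PSI derived from sequencing read proportions per bin multiplied by bin number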
EXPERIMENTAL_ENDPOINT: protein stability index

1. K19Y ... 3.06
2. K24V ... 2.96
3. L2I ... 2.19
4. I9M ... 2.25
5. A14R ... 2.51
6. E20R ... 3.29
7. I9V ... 3.64
8. N4F ... 3.14
9. K23G ... 2.42
10. T12W ... 3.31
11. T12P ... 4.73
12. K15H ... 2.94
13. A14H ... 3.14
14. E13W ... 2.56
15. K15S ... 2.75
16. L2N ... 5.12
17. E13Q ... 4.34
18. E13S ... 4.13
19. K19Q ... 2.83
20. L2V ... 1.95
21. L18W ... 2.37
22. T12R ... 4.08
23. A16G ... 3.47
24. T12L ... 4
25. K15G ... 2.34
26. I5G ... 3.46
27. I9P ... 5.1
28. I5W ... 3.93
29. E11H ... 3.1
30. I9E ... 5.1
31. E11F ... 3.43
32. I9G ... 4.67
33. E20D ... 2.79
34. L2Q ... 3.88
35. E13Y ... 3.32
36. S10E ... 2.15
37. K24H ... 2.2
38. Q22P ... 2.34
39. E8G ... 3.09
